# Run description: Inhibition of bacterial glucosamine-6-phosphate synthase by colorimetric morgan-elson assay
pIC50: −log10 of the molar value.
Readout type: pIC50

                                   molecule  readout_type  value_reported
0  CCOC(=O)c1sc(N2C(=O)C(O)=C(C(=O)c3ccc(F)cc3)C2c2cccc(Br)c2)nc1C (stereo unspecified)         pIC50            4.15
1                COc1cc2ccnc3c2c(c1OC)NC=C3         pIC50            3.92
2  CCOC(=O)c1sc(N2C(=O)C(O)=C(C(=O)c3ccc(F)cc3)C2c2ccc(OC)cc2)nc1C (stereo unspecified)         pIC50            4.15
3  N[C@@H](CO)[C@@H](O)[C@H](O)[C@H](O)COP(=O)(O)O         pIC50            4.25
4  COc1ccccc1C1Oc2ccccc2C2=C1C(c1ccccc1OC)n1nc(C)nc1N2 (stereo unspecified)         pIC50            4.15
5                               Nc1nc[nH]n1         pIC50            4.00
